molecular target: α1a-AR (Homo sapiens, UniProt P35348); construct: expressed in transfected cells; host or cells: COS-7 cells (African Green monkey kidney), membranes; experiment: α1-Adrenergic Receptor Binding Assay, 125I-HEAT radio-ligand binding, transfected COS-7 cell membranes, α1a subtype; settings: average value, COS-7 membranes, read-out: Alpha 1 Ki α1a (1) Average Value
Sequence (P35348 whole entry): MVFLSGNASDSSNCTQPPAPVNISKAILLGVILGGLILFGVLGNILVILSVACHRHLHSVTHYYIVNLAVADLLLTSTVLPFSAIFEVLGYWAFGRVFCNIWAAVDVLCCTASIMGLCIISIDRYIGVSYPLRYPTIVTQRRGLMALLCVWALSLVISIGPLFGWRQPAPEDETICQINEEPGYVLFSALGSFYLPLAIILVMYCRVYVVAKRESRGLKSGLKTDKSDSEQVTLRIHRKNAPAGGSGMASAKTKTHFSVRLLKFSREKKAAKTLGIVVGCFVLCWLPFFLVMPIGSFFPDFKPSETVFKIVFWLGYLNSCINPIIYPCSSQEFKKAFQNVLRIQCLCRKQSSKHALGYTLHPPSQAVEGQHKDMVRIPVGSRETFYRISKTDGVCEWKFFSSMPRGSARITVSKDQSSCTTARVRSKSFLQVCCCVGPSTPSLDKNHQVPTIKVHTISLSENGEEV
pKi: −log10 of the molar value.
Measured parameter: pKi

[[record]]
compound = "CC(C)Oc1ccccc1N1CCN(CC2CC(C(=O)N3CCC(C(=O)c4ccccc4)CC3)=NO2)CC1 (stereo not shown)"
experimental_system = "α1a-AR (Homo sapiens, UniProt P35348)"
experimental_result = 8.28


I: CC(C)Oc1ccccc1N1CCN(CC2CC(C(=O)N3CCC(Oc4ccccc4)CC3)=NO2)CC1 (stereo not shown) [Compound 29]
II: CC(C)Oc1ccccc1N1CCN(CC2CC(C(=O)N3CCc4cc(Br)ccc43)=NO2)CC1 (stereo not shown)
III: CC(C)Oc1ccccc1N1CCN(CC2CC(C(=O)N3CCC(Oc4ccccc4)CC3)=NO2)CC1 (single isomer, unassigned) [Compound 38]
Data request: Write the entries in order, lowest recorded pKi first. Output spec: a listing of the labels in the requested order.
Data returned: III, I, II

====

biological target: α1b-AR (Homo sapiens, UniProt P35368); construct: expressed in transfected cells; host or cells: COS-7 cells (African Green monkey kidney), membranes; experiment: α1-Adrenergic Receptor Binding Assay, 125I-HEAT radio-ligand binding, transfected COS-7 cell membranes, α1b subtype; conditions: average value, COS-7 membranes, read-out: Alpha 1 Ki α1b (1) Average Value
Sequence (P35368 whole entry): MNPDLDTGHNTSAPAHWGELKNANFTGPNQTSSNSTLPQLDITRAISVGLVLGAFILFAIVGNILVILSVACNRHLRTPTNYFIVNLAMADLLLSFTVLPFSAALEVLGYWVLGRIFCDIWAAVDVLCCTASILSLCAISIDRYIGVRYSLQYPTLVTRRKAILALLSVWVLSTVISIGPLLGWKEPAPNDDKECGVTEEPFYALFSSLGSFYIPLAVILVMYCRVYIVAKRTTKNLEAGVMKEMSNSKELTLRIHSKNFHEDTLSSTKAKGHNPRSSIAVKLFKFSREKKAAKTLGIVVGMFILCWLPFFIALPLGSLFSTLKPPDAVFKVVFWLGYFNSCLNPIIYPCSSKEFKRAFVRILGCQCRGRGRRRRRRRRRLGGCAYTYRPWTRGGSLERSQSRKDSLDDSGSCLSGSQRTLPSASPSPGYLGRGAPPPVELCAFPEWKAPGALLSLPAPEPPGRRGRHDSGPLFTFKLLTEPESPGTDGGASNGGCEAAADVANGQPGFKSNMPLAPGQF
Measured parameter: Ki (nM)

[[record]]
compound = "CC(C)Oc1ccccc1N1CCN(CC2CC(C(=O)N3CCCC3)=NO2)CC1 (stereo not drawn)"
measured_parameter = "Ki"
experimental_result = 212


a: CC(C)Oc1ccccc1N1CCN(CC2CC(C(=O)N3CCOCC3)=NO2)CC1 (stereo not drawn) [Compound 28]
b: CC(C)Oc1ccccc1N1CCN(CC2CC(C(=O)N3CCc4ccccc43)=NO2)CC1 (single isomer, unassigned) [Compound 37]
Data request: I would appreciate it if you could say which entry, a or b , has the lower Ki value. Your answer should be the label of the entry you select.
Data returned: b

A: CC(C)Oc1ccccc1N1CCN(CC2CC(CN3CCc4ccccc43)=NO2)CC1 (stereo not drawn)
B: CC(C)Oc1ccccc1N1CCN(CC2CC(C(=O)N3CCOCC3)=NO2)CC1 (single isomer, unassigned) [Compound 45]
C: COc1cc2c(cc1OC)N(C(=O)C1=NOC(CN3CCN(c4ccccc4OC(C)C)CC3)C1)CC2 (stereo not drawn)
D: CC(C)Oc1ccccc1N1CCN(CC2CC(C(=O)N3CCc4ccc([N+](=O)[O-])cc43)=NO2)CC1 (stereo not drawn)
Data request: Kindly order the items shown according to Ki, from the highest value down. Put the labels in the order asked and list them.
Data returned: B, C, D, A

a: CC(C)Oc1ccccc1N1CCN(CC2CC(C(=O)N3CCc4cc(F)ccc43)=NO2)CC1 (stereo not drawn)
b: CC(C)Oc1ccccc1N1CCN(CC2CC(C(=O)N3CC(C)(C)c4cc(Br)ccc43)=NO2)CC1 (single isomer, unassigned) [Compound 42]
Data request: Could you please tell me which of these two has the higher Ki: a or b ? Could you answer with the label of the item you picked?
Data returned: b

P: CC(=O)N1CCc2cc(NC(=O)C3=NOC(CN4CCN(c5ccccc5OC(C)C)CC4)C3)ccc21 (stereo not drawn)
Q: CC(C)Oc1ccccc1N1CCN(CC2CC(C(=O)N3CCN(c4ccccc4OC(C)C)CC3)=NO2)CC1 (stereo not drawn)
Data request: Field: lower recorded Ki (choose P or Q ) When you have decided, please share the label of that item.
Data returned: P
(P: 80.4 nM, Q: 187 nM)

A: CC(C)Oc1ccccc1N1CCN(CC2CC(C(=O)N3CCC(Oc4ccccc4)CC3)=NO2)CC1 (single isomer, unassigned) [Compound 39]
B: CC(C)Oc1ccccc1N1CCN(CC2CC(C(=O)N3CC(C)(C)c4cc(Br)ccc43)=NO2)CC1 (single isomer, unassigned) [Compound 43]
Data request: Short answer wanted: higher Ki, A or B ? State the label of the item chosen.
Data returned: B
(B: 1080 nM, A: 217 nM)

====

biological target: α1b-AR (Homo sapiens, UniProt P35368); construct: expressed in transfected cells; host or cells: COS-7 cells (African Green monkey kidney), membranes; assay: α1-Adrenergic Receptor Binding Assay, 125I-HEAT radio-ligand binding, transfected COS-7 cell membranes, α1b subtype; conditions: average value, COS-7 membranes, read-out: Alpha 1 Ki α1b (1) Average Value
Measured parameter: Ki (nM)

Here is how some molecules turned out for Ki.
[[record]]
molecule = "CC(C)Oc1ccccc1N1CCN(CC2CC(C(=O)N3CCC(Oc4ccc(Cl)cc4)CC3)=NO2)CC1 (stereo not shown)"
experimental_system = "α1b-AR (Homo sapiens, UniProt P35368)"
experimental_result = 255

[[record]]
molecule = "CC(C)Oc1ccccc1N1CCN(CC2CC(C(=O)N3CCC(Oc4ccccc4)CC3)=NO2)CC1 (single isomer, unassigned) [Compound 38]"
experimental_system = "α1b-AR (Homo sapiens, UniProt P35368)"
experimental_result = 639

[[record]]
molecule = "CC(C)Oc1ccccc1N1CCN(CC2CC(C(=O)N3CCc4ccc(NCc5ccccc5F)cc43)=NO2)CC1 (stereo not shown)"
experimental_system = "α1b-AR (Homo sapiens, UniProt P35368)"
experimental_result = 128

[[record]]
molecule = "CC(C)Oc1ccccc1N1CCN(CC2CC(C(=O)N3CCC(C(=O)c4ccc(F)cc4)CC3)=NO2)CC1 (stereo not shown) [Compound 18]"
experimental_system = "α1b-AR (Homo sapiens, UniProt P35368)"
experimental_result = 423

[[record]]
molecule = "CC(C)Oc1ccccc1N1CCN(CC2CC(C(=O)N3CCCc4ccccc43)=NO2)CC1 (stereo not shown)"
experimental_system = "α1b-AR (Homo sapiens, UniProt P35368)"
experimental_result = 258


P: CC(C)Oc1ccccc1N1CCN(CC2CC(C(=O)N3CCC(c4ccccc4)(c4ccccc4)CC3)=NO2)CC1 (stereo not shown)
Q: CC(=O)N1CCc2ccc(NC(=O)C3=NOC(CN4CCN(c5ccccc5OC(C)C)CC4)C3)cc21 (stereo not shown)
Data request: Please tell me which of the two, P or Q , has the higher reported Ki value. Reply briefly: the label of your chosen item.
Data returned: P

====

Biological target: α1d-AR (Homo sapiens, UniProt P25100)
Construct: expressed in transfected cells; host or cells: COS-7 cells (African Green monkey kidney), membranes
Sequence (P25100 1-572): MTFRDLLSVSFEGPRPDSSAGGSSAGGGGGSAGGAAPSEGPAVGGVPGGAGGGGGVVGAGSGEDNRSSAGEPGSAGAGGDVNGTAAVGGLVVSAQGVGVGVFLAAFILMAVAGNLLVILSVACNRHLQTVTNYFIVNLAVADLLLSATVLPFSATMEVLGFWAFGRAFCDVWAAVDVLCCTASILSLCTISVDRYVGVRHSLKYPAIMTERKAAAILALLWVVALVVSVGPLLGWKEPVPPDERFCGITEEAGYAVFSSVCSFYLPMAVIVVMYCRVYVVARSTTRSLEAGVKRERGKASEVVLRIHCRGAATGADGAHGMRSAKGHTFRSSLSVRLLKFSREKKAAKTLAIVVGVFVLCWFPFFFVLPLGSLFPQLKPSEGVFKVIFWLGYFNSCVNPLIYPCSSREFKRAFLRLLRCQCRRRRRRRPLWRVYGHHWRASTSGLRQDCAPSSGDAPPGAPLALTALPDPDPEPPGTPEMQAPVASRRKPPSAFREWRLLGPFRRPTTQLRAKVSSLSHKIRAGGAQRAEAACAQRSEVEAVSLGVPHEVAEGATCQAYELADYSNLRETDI
Experiment: α1-Adrenergic Receptor Binding Assay, 125I-HEAT radio-ligand binding, transfected COS-7 cell membranes, α1d subtype
Details: average value, COS-7 membranes, read-out: Alpha 1 Ki α1d (1) Average Value
Measured parameter: Ki (nM)

[[record]]
compound = "CC(C)Oc1ccccc1N1CCN(CC2CC(C(=O)N3CCCCC3)=NO2)CC1 (stereo not drawn) [Compound 12]"
experimental_system = "α1d-AR (Homo sapiens, UniProt P25100)"
experimental_result = 17.8

[[record]]
compound = "CC(C)Oc1ccccc1N1CCN(CC2CC(C(=O)N3CCC(Oc4ccccc4)CC3)=NO2)CC1 (single isomer, unassigned) [Compound 38]"
experimental_system = "α1d-AR (Homo sapiens, UniProt P25100)"
experimental_result = 55


1: CC(C)Oc1ccccc1N1CCN(CC2CC(C(=O)N3CCC(S(=O)(=O)c4ccccc4)CC3)=NO2)CC1 (stereo not drawn) [Compound 30]
2: CC(C)Oc1ccccc1N1CCN(CC2CC(C(=O)N3CCc4ccccc43)=NO2)CC1 (stereo not drawn) [Compound 10]
Data request: // pick min by Ki: 1 , 2 Answer format: the label of the selected item.
Data returned: 2
(2: 1.3 nM, 1: 4.5 nM)

A: CC(C)Oc1ccccc1N1CCN(CC2CC(C(=O)N3CCC(c4ccccc4)(c4ccccc4)CC3)=NO2)CC1 (stereo not drawn) [Compound 31]
B: CC(C)Oc1ccccc1N1CCN(CC2CC(C(=O)N3CC(C)(C)c4cc(Br)ccc43)=NO2)CC1 (single isomer, unassigned) [Compound 42]
C: Cc1ccc2c(c1)CCN2C(=O)C1=NOC(CN2CCN(c3ccccc3OC(C)C)CC2)C1 (stereo not drawn) [Compound 25]
D: CC(C)Oc1ccccc1N1CCN(CC2CC(C(=O)N3CCC(C(=O)c4ccc(F)cc4)CC3)=NO2)CC1 (single isomer, unassigned) [Compound 41]
Data request: # rank by Ki, ascending (min first) Would you mind listing the labels in the order asked for?
Data returned: C, B, A, D

P: CC(C)Oc1ccccc1N1CCN(CC2CC(C(=O)N3CCOCC3)=NO2)CC1 (stereo not drawn) [Compound 28]
Q: CC(C)Oc1ccccc1N1CCN(CC2CC(CN3CCc4ccccc43)=NO2)CC1 (stereo not drawn) [Compound 4]
R: CC(C)Oc1ccccc1N1CCN(CC2CC(C(=O)N3CCc4ccccc43)=NO2)CC1 (single isomer, unassigned) [Compound 36]
Data request: Falling order of Ki, please. Form field (ranking): labels in requested order.
Data returned: R, P, Q

A: CC(C)Oc1ccccc1N1CCN(CC2CC(C(=O)N3CCC(C(=O)c4ccc(F)cc4)CC3)=NO2)CC1 (stereo not drawn) [Compound 18]
B: CC(C)Oc1ccccc1N1CCN(CC2CC(C(=O)N3CCC(Cc4ccccc4)CC3)=NO2)CC1 (stereo not drawn) [Compound 27]
C: CC(C)Oc1ccccc1N1CCN(CC2CC(C(=O)N3CCOCC3)=NO2)CC1 (single isomer, unassigned) [Compound 45]
Data request: Give the ascending ranking of the items by reported Ki. Arrange the labels as the request states and list them.
Data returned: B, A, C
